All figures here come from patent US12404262B2.

The following compounds are shown together with reported log10 solubility values.
- TEST SUMMARY: Solubility in simulated intestinal fluids (FaSSIF/FeSSIF)
- TEST PARAMETERS: fed state simulated intestinal fluid (FeSSIF), 25 °C, fessif, thermodynamic from solid
EXPERIMENTAL READOUT: log10 solubility (log10 of the value in µg/mL)

compound="CC(C)(C#Cc1ccc(-c2ccc(Cl)c3c(N(C(=O)NC(C(=O)O)C(=O)O)S(C)(=O)=O)nn(CC(F)(F)F)c23)c([C@H](Cc2cc(F)cc(F)c2)NC(=O)Cn2nc(C(F)(F)F)c3c2C(F)(F)[C@@H]2C[C@H]32)n1)S(C)(=O)=O [Compound 53]" quantitative_readout=2.57
compound="CC(C)(C#Cc1ccc(-c2ccc(Cl)c3c(N(C(=O)NC(CP(=O)(O)O)C(=O)O)S(C)(=O)=O)nn(CC(F)(F)F)c23)c([C@H](Cc2cc(F)cc(F)c2)NC(=O)Cn2nc(C(F)(F)F)c3c2C(F)(F)[C@@H]2C[C@H]32)n1)S(C)(=O)=O (stereo partly shown) [Compound 56]" quantitative_readout=3.20
compound="CN(C(=O)N(c1nn(CC(F)(F)F)c2c(-c3ccc(C#CC(C)(C)S(C)(=O)=O)nc3[C@H](Cc3cc(F)cc(F)c3)NC(=O)Cn3nc(C(F)(F)F)c4c3C(F)(F)[C@@H]3C[C@H]43)ccc(Cl)c12)S(C)(=O)=O)[C@@H](CCC(=O)O)C(=O)OCOP(=O)(O)O [Compound 87]" quantitative_readout=2.48
compound="CN(CCN(CCC(=O)O)C(=O)OCOP(=O)(O)O)C(=O)N(c1nn(CC(F)(F)F)c2c(-c3ccc(C#CC(C)(C)S(C)(=O)=O)nc3[C@H](Cc3cc(F)cc(F)c3)NC(=O)Cn3nc(C(F)(F)F)c4c3C(F)(F)[C@@H]3C[C@H]43)ccc(Cl)c12)S(C)(=O)=O [Compound 86]" quantitative_readout=3.17
compound="CN(C(=O)N(c1nn(CC(F)(F)F)c2c(-c3ccc(C#CC(C)(C)S(C)(=O)=O)nc3[C@H](Cc3cc(F)cc(F)c3)NC(=O)Cn3nc(C(F)(F)F)c4c3C(F)(F)[C@@H]3C[C@H]43)ccc(Cl)c12)S(C)(=O)=O)[C@@H](CC(=O)O)C(=O)OCOP(=O)(O)O [Compound 88]" quantitative_readout=2.77
compound="CC(C)(C#Cc1ccc(-c2ccc(Cl)c3c(N(C(=O)C(=O)O)S(C)(=O)=O)nn(CC(F)(F)F)c23)c([C@H](Cc2cc(F)cc(F)c2)NC(=O)Cn2nc(C(F)(F)F)c3c2C(F)(F)[C@@H]2C[C@H]32)n1)S(C)(=O)=O [Compound 16]" quantitative_readout=2.70
compound="CC(C)(C#Cc1ccc(-c2ccc(Cl)c3c(N(C(=O)N[C@@H](CCC(=O)O)C(=O)O)S(C)(=O)=O)nn(CC(F)(F)F)c23)c([C@H](Cc2cc(F)cc(F)c2)NC(=O)Cn2nc(C(F)(F)F)c3c2C(F)(F)[C@@H]2C[C@H]32)n1)S(C)(=O)=O [Compound 68]" quantitative_readout=2.39
compound="CC(C)(C#Cc1ccc(-c2ccc(Cl)c3c(N(C(=O)OCCCC(=O)O)S(C)(=O)=O)nn(CC(F)(F)F)c23)c([C@H](Cc2cc(F)cc(F)c2)NC(=O)Cn2nc(C(F)(F)F)c3c2C(F)(F)[C@@H]2C[C@H]32)n1)S(C)(=O)=O [Compound 113]" quantitative_readout=0.90
compound="CC(C)(C#Cc1ccc(-c2ccc(Cl)c3c(N(C(=O)OCC(=O)OCOP(=O)(O)O)S(C)(=O)=O)nn(CC(F)(F)F)c23)c([C@H](Cc2cc(F)cc(F)c2)NC(=O)Cn2nc(C(F)(F)F)c3c2C(F)(F)[C@@H]2C[C@H]32)n1)S(C)(=O)=O [Compound 94]" quantitative_readout=2.28
compound="CC(C)(C#Cc1ccc(-c2ccc(Cl)c3c(N(C(=O)N[C@](C)(CO)CC(=O)O)S(C)(=O)=O)nn(CC(F)(F)F)c23)c([C@H](Cc2cc(F)cc(F)c2)NC(=O)Cn2nc(C(F)(F)F)c3c2C(F)(F)[C@@H]2C[C@H]32)n1)S(C)(=O)=O [Compound 66]" quantitative_readout=2.15
compound="CC(C)(C#Cc1ccc(-c2ccc(Cl)c3c(N(COC(=O)C(=O)O)S(C)(=O)=O)nn(CC(F)(F)F)c23)c([C@H](Cc2cc(F)cc(F)c2)NC(=O)Cn2nc(C(F)(F)F)c3c2C(F)(F)[C@@H]2C[C@H]32)n1)S(C)(=O)=O [Compound 20]" quantitative_readout=2.66
compound="CC(C)(C#Cc1ccc(-c2ccc(Cl)c3c(N(C(=O)OCCNC(=O)C(=O)O)S(C)(=O)=O)nn(CC(F)(F)F)c23)c([C@H](Cc2cc(F)cc(F)c2)NC(=O)Cn2nc(C(F)(F)F)c3c2C(F)(F)[C@@H]2C[C@H]32)n1)S(C)(=O)=O [Compound 122]" quantitative_readout=2.21
compound="CC(C)(C#Cc1ccc(-c2ccc(Cl)c3c(N(C(=O)N[C@@H](COP(=O)(O)O)C(=O)O)S(C)(=O)=O)nn(CC(F)(F)F)c23)c([C@H](Cc2cc(F)cc(F)c2)NC(=O)Cn2nc(C(F)(F)F)c3c2C(F)(F)[C@@H]2C[C@H]32)n1)S(C)(=O)=O [Compound 59]" quantitative_readout=2.91

* * *

The following molecules are shown together with reported solubility values.
- TEST SUMMARY: physchem
- TEST PARAMETERS: 25 °C, fessif, thermodynamic from solid
EXPERIMENTAL READOUT: solubility (µg/mL)

molecule="CC(C)(C#Cc1ccc(-c2ccc(Cl)c3c(N(C(=O)O[C@H](CNC(=O)OCOP(=O)(O)O)CC(=O)O)S(C)(=O)=O)nn(CC(F)(F)F)c23)c([C@H](Cc2cc(F)cc(F)c2)NC(=O)Cn2nc(C(F)(F)F)c3c2C(F)(F)[C@@H]2C[C@H]32)n1)S(C)(=O)=O [Compound 136]" experimental_readout=solubility units=µg/mL quantitative_readout=2910
molecule="CN(Cc1ccccc1OP(=O)(O)O)C(=O)N(c1nn(CC(F)(F)F)c2c(-c3ccc(C#CC(C)(C)S(C)(=O)=O)nc3[C@H](Cc3cc(F)cc(F)c3)NC(=O)Cn3nc(C(F)(F)F)c4c3C(F)(F)[C@@H]3C[C@H]43)ccc(Cl)c12)S(C)(=O)=O [Compound 67]" experimental_readout=solubility units=µg/mL quantitative_readout=707
molecule="CN(CCN(C)C(=O)N(c1nn(CC(F)(F)F)c2c(-c3ccc(C#CC(C)(C)S(C)(=O)=O)nc3[C@H](Cc3cc(F)cc(F)c3)NC(=O)Cn3nc(C(F)(F)F)c4c3C(F)(F)[C@@H]3C[C@H]43)ccc(Cl)c12)S(C)(=O)=O)C(=O)OCOP(=O)(O)O [Compound 83]" experimental_readout=solubility units=µg/mL quantitative_readout=500

* * *

- TEST PARAMETERS: 1×PBS buffer (pH 7.4), 1.0% DMSO, 24-hour incubation at ambient temperature, maximum theoretical 100 μM; second value of the cell
The following molecules are shown together with reported pH 7 solubility values.
EXPERIMENTAL READOUT: pH 7 solubility

compound_structure=CC(C)(C#Cc1ccc(-c2ccc(Cl)c3c(N(C(=O)CCN4CCNCC4)S(C)(=O)=O)nn(CC(F)(F)F)c23)c([C@H](Cc2cc(F)cc(F)c2)NC(=O)Cn2nc(C(F)(F)F)c3c2C(F)(F)[C@@H]2C[C@H]32)n1)S(C)(=O)=O experimental_readout="pH 7 solubility" result="21 μM"
compound_structure=CC(C)(C#Cc1ccc(-c2ccc(Cl)c3c(N(CCOP(=O)(O)O)S(C)(=O)=O)nn(CC(F)(F)F)c23)c([C@H](Cc2cc(F)cc(F)c2)NC(=O)Cn2nc(C(F)(F)F)c3c2C(F)(F)[C@@H]2C[C@H]32)n1)S(C)(=O)=O experimental_readout="pH 7 solubility" result="100 μM"
compound_structure=CN(CC(=O)OCOP(=O)(O)O)C(=O)N(c1nn(CC(F)(F)F)c2c(-c3ccc(C#CC(C)(C)S(C)(=O)=O)nc3[C@H](Cc3cc(F)cc(F)c3)NC(=O)Cn3nc(C(F)(F)F)c4c3C(F)(F)[C@@H]3C[C@H]43)ccc(Cl)c12)S(C)(=O)=O experimental_readout="pH 7 solubility" result="16 μM"
compound_structure=CC(C)(C#Cc1ccc(-c2ccc(Cl)c3c(N(C(=O)CN4CCN(C(=N)N)CC4)S(C)(=O)=O)nn(CC(F)(F)F)c23)c([C@H](Cc2cc(F)cc(F)c2)NC(=O)Cn2nc(C(F)(F)F)c3c2C(F)(F)[C@@H]2C[C@H]32)n1)S(C)(=O)=O experimental_readout="pH 7 solubility" result="6 μM"

* * *

- TEST PARAMETERS: pH 2
EXPERIMENTAL READOUT: pH 2 solubility

compound_structure=CC(C)(C#Cc1ccc(-c2ccc(Cl)c3c(N(C(=O)OC(CCC(=O)O)CCC(=O)O)S(C)(=O)=O)nn(CC(F)(F)F)c23)c([C@H](Cc2cc(F)cc(F)c2)NC(=O)Cn2nc(C(F)(F)F)c3c2C(F)(F)[C@@H]2C[C@H]32)n1)S(C)(=O)=O experimental_readout="pH 2 solubility" result="2/83 μM"
compound_structure=CN(Cc1ccccc1OP(=O)(O)O)C(=O)N(c1nn(CC(F)(F)F)c2c(-c3ccc(C#CC(C)(C)S(C)(=O)=O)nc3[C@H](Cc3cc(F)cc(F)c3)NC(=O)Cn3nc(C(F)(F)F)c4c3C(F)(F)[C@@H]3C[C@H]43)ccc(Cl)c12)S(C)(=O)=O experimental_readout="pH 2 solubility" result="2/79 μM"
compound_structure=CC(C)(C#Cc1ccc(-c2ccc(Cl)c3c(N(C(=O)O[C@H](CNC(=O)OCOP(=O)(O)O)CC(=O)O)S(C)(=O)=O)nn(CC(F)(F)F)c23)c([C@H](Cc2cc(F)cc(F)c2)NC(=O)Cn2nc(C(F)(F)F)c3c2C(F)(F)[C@@H]2C[C@H]32)n1)S(C)(=O)=O experimental_readout="pH 2 solubility" result="3/57 μM"
compound_structure=CN(CCN(C)C(=O)N(c1nn(CC(F)(F)F)c2c(-c3ccc(C#CC(C)(C)S(C)(=O)=O)nc3[C@H](Cc3cc(F)cc(F)c3)NC(=O)Cn3nc(C(F)(F)F)c4c3C(F)(F)[C@@H]3C[C@H]43)ccc(Cl)c12)S(C)(=O)=O)C(=O)OCOP(=O)(O)O experimental_readout="pH 2 solubility" result="1/61 μM"
